System: platelet aggregation
test-summary: Platelet aggregation-inhibitory activity in platelet-rich plasma
Type: cell-based, rabbit
experimental-conditions: Oryctolagus cuniculus, read-out: 50%-Inhibition concentration, Arachidonic acid
quantity-measured: IC50

[in] Tell me measured IC50 for O=c1[nH]cc(F)c(=O)[nH]1 please.
[out] > 1 mM
